system: E. coli TESEC Mtb Alr; test: growth (OD600 after 10 h); higher = more growth (less inhibition); settings: arabinose 10000 nM; compound 0.1 mM; raw OD600 reference: median of DMSO wells 0.264, cell-free background 0.041
Where a name gives a salt, the structure may show the parent alone.
growth values, listed per item

compound	growth
COC1=CC(=O)C[C@@H](C)[C@]12Oc1c(Cl)c(OC)cc(OC)c1C2=O	0.249
Cc1cccc(N(C)C(=S)Oc2ccc3ccccc3c2)c1 [Tolnaftate]	0.268
CCCCCCC[N+](CC)(CC)CCCCc1ccc(Cl)cc1 [Clofilium tosylate]	0.039
CN1CCOC(c2ccccc2)c2ccccc2C1 (stereo not given) [Nefopam hydrochloride]	0.263
Nc1ccc(/N=N/c2ccccc2)c(N)n1 [Phenazopyridine hydrochloride]	0.251

* * *

tested on: E. coli TESEC Alr+ wild-type control; assay: growth (OD600 after 10 h); higher = more growth (less inhibition); conditions: compound 0.1 mM; raw OD600 reference: median of DMSO wells 0.241, cell-free background 0.041
Structures can show the parent of a compound that is named as a salt.
Label not fulfilled if growth falls below 0.2; label fulfilled in every other case.

molecule	classLabel
CC(C)NCC(O)c1ccc(O)c(O)c1 (single isomer, unassigned; (-)) [(-)-Isoproterenol hydrochloride]	fulfilled
NCc1ccccc1CC(=O)N[C@@H]1C(=O)N2C(C(=O)O)=C(CSc3nnnn3CC(=O)O)CS[C@H]12 [Ceforanide]	fulfilled
CN1CCCN(C(c2ccccc2)c2ccc(Cl)cc2)CC1 (configuration not stated) [Homochlorcyclizine dihydrochloride]	not fulfilled
Cc1cc(-c2ccccc2)nnc1NCCN1CCOCC1 [Minaprine dihydrochloride]	fulfilled
c1ccc(CNc2ncnc3nc[nH]c23)cc1 [Aminopurine, 6-benzyl]	fulfilled
CC(=O)[C@H]1CC[C@H]2[C@@H]3C[C@H](C)C4=CC(=O)CC[C@]4(C)[C@H]3[C@@H](O)C[C@]12C [Medrysone]	not fulfilled
CC(=O)[C@H]1CC[C@H]2[C@@H]3CC=C4C[C@@H](O)CC[C@]4(C)[C@H]3CC[C@]12C [Pregnenolone]	not fulfilled
CCCC(C(=O)OCCN(CC)CC)(c1ccccc1)c1ccccc1 [Proadifen hydrochloride]	not fulfilled
Cc1ccc(C(=O)c2cc(O)c(O)c([N+](=O)[O-])c2)cc1 [Tolcapone]	not fulfilled
CN(C)CCC(c1ccc(Cl)cc1)c1ccccn1 (configuration not stated) [Chlorpheniramine maleate]	fulfilled
c1ccc(CN(CC2=NCCN2)c2ccccc2)cc1 [Antazoline hydrochloride]	fulfilled
COc1cc(C(=O)N2CCOCC2)cc(OC)c1OC [Trimetozine]	fulfilled
Cn1c(=O)c2c(ncn2CC2OCCO2)n(C)c1=O [Doxofylline]	fulfilled
Cc1cccc(C)c1NC(=O)C1CCCCN1C (configuration not stated) [Mepivacaine hydrochloride]	fulfilled
CC[C@@H](CO)NCCN[C@@H](CC)CO [Ethambutol dihydrochloride]	fulfilled

* * *

system: E. coli TESEC Mtb Asd; experiment: growth (OD600 after 10 h); higher = more growth (less inhibition); conditions: arabinose induction (level): High; compound 0.1 mM; raw OD600 reference: median of DMSO wells 0.331, cell-free background 0.041
Counter-ions that a name gives are not always drawn.
growth values, listed per item

compound	targetOrSystem	growth
O=C(c1ccccc1)c1ccc2n1CCC2C(=O)O (centres undefined)	E. coli TESEC Mtb Asd	0.381
CCOc1cc(CC(=O)N[C@@H](CC(C)C)c2ccccc2N2CCCCC2)ccc1C(=O)O [Repaglinide]	E. coli TESEC Mtb Asd	0.282
C1CCC(C(CC2CCCCN2)C2CCCCC2)CC1 (centres undefined) [Perhexiline maleate]	E. coli TESEC Mtb Asd	0.0477
CC(C)(Sc1cc(C(C)(C)C)c(O)c(C(C)(C)C)c1)Sc1cc(C(C)(C)C)c(O)c(C(C)(C)C)c1	E. coli TESEC Mtb Asd	0.344

* * *

growth values, listed per item
system: E. coli TESEC Mtb Asd; assay: growth (OD600 after 10 h); higher = more growth (less inhibition); conditions: arabinose induction (level): High; compound 0.1 mM; raw OD600 reference: median of DMSO wells 0.331, cell-free background 0.041
Counter-ions that a name gives are not always drawn.

molecule	targetOrSystem	growth
Cc1c(C)c2c(c(C)c1O)CCC(C)(C(=O)O)O2 (centres undefined) [Trolox]	E. coli TESEC Mtb Asd	0.272
CCCNC(=O)NS(=O)(=O)c1ccc(Cl)cc1 [Chlorpropamide]	E. coli TESEC Mtb Asd	0.392
CN(Cc1ccc(C(C)(C)C)cc1)Cc1cccc2ccccc12 [Butenafine Hydrochloride]	E. coli TESEC Mtb Asd	0.204
CC[N+](C)(C)c1cccc(O)c1 [Edrophonium chloride]	E. coli TESEC Mtb Asd	0.384
COCCc1ccc(OCC(O)CNC(C)C)cc1 (racemic) [Metoprolol-(+,-) (+)-tartrate salt]	E. coli TESEC Mtb Asd	0.311
O=C1c2cccc(O)c2C(=O)c2c(O)cccc21 [1,8-Dihydroxyanthraquinone]	E. coli TESEC Mtb Asd	0.187
C=C(CC)C(=O)c1ccc(OCC(=O)O)c(Cl)c1Cl [Ethacrynic acid]	E. coli TESEC Mtb Asd	0.171
COc1ccc2[nH]cc(CCNC(C)=O)c2c1 [Melatonin]	E. coli TESEC Mtb Asd	0.252
CS(=O)(=O)c1ccc([C@@H](O)[C@@H](CO)NC(=O)C(Cl)Cl)cc1 [Thiamphenicol]	E. coli TESEC Mtb Asd	0.0715
OCC(O)CN1CCN(c2ccccc2)CC1 (racemic) [Dropropizine (R,S)]	E. coli TESEC Mtb Asd	0.364
O=C(CCCCC(=O)Nc1c(I)cc(I)c(C(=O)O)c1I)Nc1c(I)cc(I)c(C(=O)O)c1I [Iodipamide]	E. coli TESEC Mtb Asd	0.436
C=CCOc1ccccc1OCC(O)CNC(C)C (centres undefined) [Oxprenolol hydrochloride]	E. coli TESEC Mtb Asd	0.332
COc1ccc(CC(C)NCC(O)c2ccc(O)c(NC=O)c2)cc1 (centres undefined) [Formoterol fumarate]	E. coli TESEC Mtb Asd	0.251
CCN[C@H]1CN(CCCOC)S(=O)(=O)c2sc(S(N)(=O)=O)cc21 [Brinzolamide]	E. coli TESEC Mtb Asd	0.259
N=C(N)NC(=N)NCCc1ccccc1 [Phenformin hydrochloride]	E. coli TESEC Mtb Asd	0.378
CCC1NC(=O)c2cc(S(N)(=O)=O)c(Cl)cc2N1 (centres undefined) [Quinethazone]	E. coli TESEC Mtb Asd	0.419
N=C(NCCCCCCNC(=N)NC(=N)Nc1ccc(Cl)cc1)NC(=N)Nc1ccc(Cl)cc1 [Chlorhexidine]	E. coli TESEC Mtb Asd	0.0592
CC(=O)OC[C@H]1O[C@@H]([S-])[C@H](OC(C)=O)[C@@H](OC(C)=O)[C@@H]1OC(C)=O.CCP(CC)CC.[Au+] [Auranofin]	E. coli TESEC Mtb Asd	0.0525
CN(C)CCOC(c1ccccc1)c1ccccc1.Cn1c(=O)c2[nH]c(Cl)nc2n(C)c1=O [Dimenhydrinate]	E. coli TESEC Mtb Asd	0.261
CC(CN(C)C)CN1c2ccccc2Sc2ccccc21 (centres undefined) [Trimeprazine tartrate]	E. coli TESEC Mtb Asd	0.175
CNC(=O)c1c(I)c(C(=O)NCC(=O)Nc2c(I)c(C(=O)O)c(I)c(C(=O)NCCO)c2I)c(I)c(N(C)C(C)=O)c1I [Ioxaglic acid]	E. coli TESEC Mtb Asd	0.343
C[C@]12CC[C@@H]3c4ccc(OS(=O)(=O)O)cc4CC[C@H]3[C@@H]1CCC2=O [Estropipate]	E. coli TESEC Mtb Asd	0.301
C[C@]12CCC(=O)C=C1CC[C@@H]1[C@@H]2[C@@H](O)C[C@@]2(C)[C@H]1CC[C@]2(O)C(=O)CO [Hydrocortisone base]	E. coli TESEC Mtb Asd	0.294
CN(c1nccc(=O)[nH]1)C1CCN(c2nc3ccccc3n2Cc2ccc(F)cc2)CC1 [Mizolastine]	E. coli TESEC Mtb Asd	0.177
CCC(Cc1c(I)cc(I)c(N)c1I)C(=O)O (centres undefined) [Iopanoic acid]	E. coli TESEC Mtb Asd	0.114
O=C(c1ccc(F)cc1)C1CCN(CCn2c(=O)[nH]c3ccccc3c2=O)CC1 [Ketanserin tartrate hydrate]	E. coli TESEC Mtb Asd	0.243
CCOC(=O)n1ccn(C)c1=S [Carbimazole]	E. coli TESEC Mtb Asd	0.346
CCC1(c2ccccc2)C(=O)NCNC1=O [Primidone]	E. coli TESEC Mtb Asd	0.448
CN(C)[C@@H]1C(=O)C(C(N)=O)=C(O)[C@@]2(O)C(=O)C3=C(O)c4c(O)ccc(Cl)c4[C@@H](O)[C@H]3C[C@@H]12 [Demeclocycline hydrochloride]	E. coli TESEC Mtb Asd	0.0573
CN(C)C/C=C(/c1ccc(Br)cc1)c1cccnc1 [Zimelidine dihydrochloride monohydrate]	E. coli TESEC Mtb Asd	0.237
O=C(CCCN1CCC(O)(c2ccc(Cl)cc2)CC1)c1ccc(F)cc1 [Haloperidol]	E. coli TESEC Mtb Asd	0.395
O=C(O)c1cc(/N=N/c2ccc(S(=O)(=O)Nc3ccccn3)cc2)ccc1O [Sulfasalazine]	E. coli TESEC Mtb Asd	0.314
CC(=O)O[C@]1(C(C)=O)CC[C@H]2[C@@H]3C=C(Cl)C4=CC(=O)CC[C@]4(C)[C@H]3CC[C@@]21C [Chlormadinone acetate]	E. coli TESEC Mtb Asd	0.12
C[C@@H](c1ncncc1F)[C@](O)(Cn1cncn1)c1ccc(F)cc1F [Voriconazole]	E. coli TESEC Mtb Asd	0.315
